- test-protocol: Ocular tissue concentrations (aqueous humor, vitreous humor, iris, retina, choroid, cornea) after topical ocular, subcutaneous and intravitreal administration
- Type: in vivo, New Zealand White rabbits
- recorded-conditions: New Zealand White, rabbit, cornea homogenate, other: intravitreal, 2.5 mg/eye, Cornea homogenate, 24 hr, OD; sodium salt, intravitreal 2.5 mg/eye, Group 4; read-out: Cornea Conc. (ng/mL) OD

smiles-text	concentration at 24 hr
COC(=O)N[C@@H](Cc1ccccc1)C(=O)N[C@@H](Cc1ccc(NS(=O)(=O)O)cc1)c1csc(-c2cccs2)n1	2180 ng/mL

* * *

- test-protocol: Ocular tissue concentrations (aqueous humor, vitreous humor, iris, retina, choroid, cornea) after topical ocular, subcutaneous and intravitreal administration
- Assay type: in vivo, New Zealand White rabbits
- recorded-conditions: New Zealand White, rabbit, choroid, other: intravitreal, 2.5 mg/eye, Choroid, 6.0 hr; sodium salt, intravitreal 2.5 mg/eye, Group 4; read-out: Choroid Avg.
- Protocol: To measure the concentration of Compound 1 in plasma and ocular tissues following topical ocular, subcutaneous, and intravitreal administration, New Zealand White rabbits were administered Compound 1, and plasma and ocular samples were collected at pre-determined time points. […] Ocular tissue samples from both eyes of each animal were collected and weights were recorded. Plasma and ocular tissue sample concentrations of Compound 1 were determined by LC-MS/MS. […]
measured-parameter: concentration at 6 hr (ng/g)

smiles-text	measured-parameter	measured
COC(=O)N[C@@H](Cc1ccccc1)C(=O)N[C@@H](Cc1ccc(NS(=O)(=O)O)cc1)c1csc(-c2cccs2)n1	concentration at 6 hr	947000

* * *

- test-protocol: Ocular tissue concentrations (aqueous humor, vitreous humor, iris, retina, choroid, cornea) after topical ocular, subcutaneous and intravitreal administration
- Type: in vivo, New Zealand White rabbits
- recorded-conditions: New Zealand White, rabbit, retina, other: intravitreal, 2.5 mg/eye, Retina, 24 hr, OD; sodium salt, intravitreal 2.5 mg/eye, Group 4; read-out: Retina Conc. (ng/g) OD

molecule	concentration at 24 h
COC(=O)N[C@@H](Cc1ccccc1)C(=O)N[C@@H](Cc1ccc(NS(=O)(=O)O)cc1)c1csc(-c2cccs2)n1 [Compound 1]	321000 ng/g

* * *

- test-protocol: Ocular tissue concentrations (aqueous humor, vitreous humor, iris, retina, choroid, cornea) after topical ocular, subcutaneous and intravitreal administration
- Assay type: in vivo, New Zealand White rabbits
- recorded-conditions: New Zealand White, rabbit, cornea, subcutaneous, 5 mg/kg/dose, Cornea, 2 hr; free acid, subcutaneous 5 mg/kg/dose, Group 3; read-out: Cornea Average

smiles-text	concentration at 2 h, ng/g
COC(=O)N[C@@H](Cc1ccccc1)C(=O)N[C@@H](Cc1ccc(NS(=O)(=O)O)cc1)c1csc(-c2cccs2)n1	5.65

* * *

- test-protocol: Ocular tissue concentrations (aqueous humor, vitreous humor, iris, retina, choroid, cornea) after topical ocular, subcutaneous and intravitreal administration
- Assay type: in vivo, New Zealand White rabbits
- recorded-conditions: New Zealand White, rabbit, choroid, subcutaneous, 5 mg/kg/dose, TABLE 16: Choroid, 1 hr; free acid, subcutaneous 5 mg/kg/dose, Group 3; read-out: Choroid Average

molecule	value-unit	concentration at 1 h
COC(=O)N[C@@H](Cc1ccccc1)C(=O)N[C@@H](Cc1ccc(NS(=O)(=O)O)cc1)c1csc(-c2cccs2)n1 [Compound 1]	ng/g	83.3

* * *

- test-protocol: Ocular tissue concentrations (aqueous humor, vitreous humor, iris, retina, choroid, cornea) after topical ocular, subcutaneous and intravitreal administration
- Format: in vivo, New Zealand White rabbits
- recorded-conditions: New Zealand White, rabbit, retina, other: intravitreal, 2.5 mg/eye, Retina, 48 hr, OS; sodium salt, intravitreal 2.5 mg/eye, Group 4; read-out: Retina Conc. (ng/g) OS

smiles-text	concentration at 48 h, ng/g
COC(=O)N[C@@H](Cc1ccccc1)C(=O)N[C@@H](Cc1ccc(NS(=O)(=O)O)cc1)c1csc(-c2cccs2)n1	66300
